# TESTED TARGET: recombinant HIV-1BaL gp120 (HIV-1 BaL)
# PROTOCOL SUMMARY: SPR (Biacore 3000), gp120BaL immobilised on CM5 chip, peptide as analyte
MEASUREMENT KIND: Kd (nM)
# unit: nM | format: bare number

Task: Which Kd is reported for this binder? H-RINNIPWSEAMM-NH2 (Quality control peptide of the SPR assay) [12p1 (RINNIPWSEAMM), 12-mer peptide]
Result: 1020

These data points were gathered from patent EP2265632B1.
